# test-target: T1, PUF4 RNA-binding domain (Saccharomyces cerevisiae, UniProt P25339 537-888)
# T1 sequence: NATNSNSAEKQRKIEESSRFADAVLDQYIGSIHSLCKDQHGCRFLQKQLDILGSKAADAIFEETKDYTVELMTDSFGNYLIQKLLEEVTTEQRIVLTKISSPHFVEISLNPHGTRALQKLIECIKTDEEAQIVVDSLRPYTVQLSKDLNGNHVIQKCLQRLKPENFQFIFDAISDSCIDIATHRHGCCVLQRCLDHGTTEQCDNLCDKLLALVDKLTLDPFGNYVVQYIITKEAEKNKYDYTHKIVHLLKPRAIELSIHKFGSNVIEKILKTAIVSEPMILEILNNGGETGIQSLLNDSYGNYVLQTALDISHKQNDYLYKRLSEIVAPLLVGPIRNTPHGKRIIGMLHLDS
# procedure-text: Mg; RNA-MaP; 20 mM Na-HEPES pH 7.4, 30 mM KOAc, 0.75 mM MgCl2, 0.1% Tween-20, 5% glycerol, 0.1 mg/mL BSA, 2 mM DTT; 25 C; 0.0125-409.6 nM protein
# experimental-context: tags: N-His6-TEV cleaved; C-SNAP kept, Cy3B-labelled; label: tethered on chip by stalled RNA polymerase
Would you kindly list pKd for each of these binders?
Bear in mind: pKd is minus log10 of a mol/L concentration; give just that figure.

Determine from records and report pKd for UCUCUUUGUAUCCCGCUCUCUU (ssRNA) [Ic_S1_P5E.1_K5.1_C5.1_H5.1_A5.1_[T6C]_[A7C]_F5.1_[T8C]_[T9G]_[A10C]_T5.1] 5.77

Please give the documented pKd of Ic_S2_P4E.1_K4.1_C4.1_H4.1_A4.1_[T5C]_F4.1_[T8C]_[A9C]_T4.1 (ssRNA) RNA: UUUGAUUAAUAUGAUAUCGUUCUUUCUUGUACAUCCUUCUUUCUCGAUAUCAUAUUAAUCUUU 7.91

Please give measured pKd of the following entry: Id_ii_S2_P3E.4_K3.3_C3.2_[C-2T]_[T-1A]_H3.3_A3.1_F3.1_T3.2_[T9A]_[A10T] (ssRNA) RNA: UUUGAUUAAUAUGAUAUCGUUCUUUCUUAACACUAUAAUUUCUUUCUCGAUAUCAUAUUAAUCUUU 5.67

Output pKd of ACAAACUGUACCUCUUAUUAACAAAC (ssRNA) [Ie_S3_P5E.1_K5.1_C5.1_H5.1_[+4CCTC]_A5.1_F5.1_T5.1] 7.56
